Biological target: AMPKα1β1γ1 (Homo sapiens, UniProt Q13131+Q9Y478)
Sequence (Q13131 whole entry): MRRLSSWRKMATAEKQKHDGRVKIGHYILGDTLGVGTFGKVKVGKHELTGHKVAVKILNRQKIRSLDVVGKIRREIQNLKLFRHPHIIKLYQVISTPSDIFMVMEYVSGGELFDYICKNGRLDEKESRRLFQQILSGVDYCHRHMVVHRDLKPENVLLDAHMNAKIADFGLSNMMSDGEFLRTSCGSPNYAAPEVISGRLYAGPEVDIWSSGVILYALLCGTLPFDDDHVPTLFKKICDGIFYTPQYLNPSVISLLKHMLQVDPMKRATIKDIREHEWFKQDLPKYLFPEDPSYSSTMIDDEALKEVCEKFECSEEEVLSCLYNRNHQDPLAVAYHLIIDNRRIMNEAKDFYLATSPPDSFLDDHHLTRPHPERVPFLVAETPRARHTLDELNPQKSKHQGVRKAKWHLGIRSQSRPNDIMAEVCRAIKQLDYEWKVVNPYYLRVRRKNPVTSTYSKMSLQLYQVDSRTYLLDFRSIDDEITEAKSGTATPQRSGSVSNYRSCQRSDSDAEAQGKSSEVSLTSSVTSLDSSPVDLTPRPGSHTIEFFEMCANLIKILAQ
Sequence (Q9Y478 whole entry): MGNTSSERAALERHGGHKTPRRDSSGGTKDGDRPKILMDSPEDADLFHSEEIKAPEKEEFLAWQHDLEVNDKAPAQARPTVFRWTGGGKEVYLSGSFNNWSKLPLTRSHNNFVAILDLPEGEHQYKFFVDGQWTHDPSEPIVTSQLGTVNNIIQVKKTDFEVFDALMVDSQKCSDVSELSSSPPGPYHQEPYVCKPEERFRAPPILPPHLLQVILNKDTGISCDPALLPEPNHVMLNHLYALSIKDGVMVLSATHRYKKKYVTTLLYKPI
Sequence (P54619 whole entry partner): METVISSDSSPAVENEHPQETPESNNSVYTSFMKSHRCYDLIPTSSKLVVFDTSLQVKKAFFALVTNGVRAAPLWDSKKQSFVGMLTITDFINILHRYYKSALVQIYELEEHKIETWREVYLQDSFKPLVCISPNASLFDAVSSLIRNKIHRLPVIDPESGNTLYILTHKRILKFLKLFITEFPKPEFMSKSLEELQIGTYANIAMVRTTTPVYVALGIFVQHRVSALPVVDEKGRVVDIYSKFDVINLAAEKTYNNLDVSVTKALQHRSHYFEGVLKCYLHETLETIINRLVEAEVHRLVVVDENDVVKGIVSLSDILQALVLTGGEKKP
Test: AMPKα1β1γ1 biochemical assay (LabChip EZ Reader mobility shift)
Details: EC50 of Table 1; activation, normalized to DMSO vehicle control; read-out: Human AMPK AMPKα1β1γ1 EC50
measured.metric: EC50

Below are worked cases with known answers.
{"compound": "COc1nc(N2C[C@H]3C[C@H]3C2)ccc1-c1cc2c(C(=O)O)c[nH]c2cc1Cl", "EC50": "0.05 to 0.1 µM"}
{"compound": "COc1nc(N2CC3(CCC3)C2)ccc1-c1cc2c(C(=O)O)c[nH]c2cc1Cl", "EC50": "≤ 0.05 µM"}
{"compound": "COc1nc(N2CC3CC(C2)O3)ccc1-c1cc2c(C(=O)O)c[nH]c2cc1Cl", "EC50": "≤ 0.05 µM"}
{"compound": "COc1nc(N2CC3(CCOCC3)C2)ccc1-c1cc2c(C(=O)O)c[nH]c2cc1Cl", "EC50": "0.1 to 0.25 µM"}

Okay, next one:
Qu. For the compound shown here, `COc1nc(N2CC3(COC3)C2)ccc1-c1c(F)cc2[nH]cc(C(=O)O)c2c1F` , give the reported EC50.
Ans. ≤ 0.05 µM

* * *

Target: AMPKα1β2γ1 (Homo sapiens, UniProt O43741+Q13131)
Sequence (Q13131 whole entry): as the sequence (Q13131 whole entry) above
Sequence (O43741 whole entry): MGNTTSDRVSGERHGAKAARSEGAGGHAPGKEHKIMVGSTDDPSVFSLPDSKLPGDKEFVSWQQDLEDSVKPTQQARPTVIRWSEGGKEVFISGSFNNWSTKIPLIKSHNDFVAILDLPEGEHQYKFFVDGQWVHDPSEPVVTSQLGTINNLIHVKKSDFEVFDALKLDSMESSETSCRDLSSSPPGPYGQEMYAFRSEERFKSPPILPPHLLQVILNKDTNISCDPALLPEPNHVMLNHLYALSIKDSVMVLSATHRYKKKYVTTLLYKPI
Sequence (P54619 whole entry partner): as the sequence (P54619 whole entry partner) above
Assay: AMPKα1β2γ1 biochemical assay (LabChip EZ Reader mobility shift)
Conditions: second EC50 column of Table 1 (head repeats α1β1γ1; text says α1β2γ1 isoform); read-out: Human AMPK AMPKα1β1γ1 EC50
pEC50: −log10 of the molar value.
measured.metric: pEC50

// worked examples, pEC50 included
{"compound": "COc1nc(N2CC3(CC3)C2)ccc1-c1cc2c(C(=O)O)c[nH]c2cc1Cl [Example 12]", "assay.system": "AMPKα1β2γ1 (Homo sapiens, UniProt O43741+Q13131)", "pEC50": "< 5.00"}
{"compound": "COc1nc(N2CC3(CCOC3)C2)ccc1-c1cc2c(C(=O)O)c[nH]c2cc1Cl [Example 21]", "assay.system": "AMPKα1β2γ1 (Homo sapiens, UniProt O43741+Q13131)", "pEC50": "< 5.00"}
{"compound": "COc1nc(N2C[C@H]3COC[C@@H]3C2)ccc1-c1cc2c(C(=O)O)c[nH]c2cc1Cl [Example 34]", "assay.system": "AMPKα1β2γ1 (Homo sapiens, UniProt O43741+Q13131)", "pEC50": "5.00 to 6.60"}
{"compound": "COc1nc(N2CC3(CNC(=O)C3)C2)ccc1-c1cc2c(C(=O)O)c[nH]c2cc1Cl [Example 19]", "assay.system": "AMPKα1β2γ1 (Homo sapiens, UniProt O43741+Q13131)", "pEC50": "< 5.00"}
{"compound": "COc1nc(N2CC3(CCCO3)C2)ccc1-c1cc2c(C(=O)O)c[nH]c2cc1Cl [Example 8]", "assay.system": "AMPKα1β2γ1 (Homo sapiens, UniProt O43741+Q13131)", "pEC50": "< 5.00"}
{"compound": "COc1nc(N2CC3(COC3)C2)ccc1-c1cc2c(C(=O)O)c[nH]c2cc1Cl [Example 1]", "assay.system": "AMPKα1β2γ1 (Homo sapiens, UniProt O43741+Q13131)", "pEC50": "< 5.00"}
{"compound": "COc1nc(N2CC3(CCC3)C2)ccc1-c1cc2c(C(=O)O)c[nH]c2cc1Cl [Example 13]", "assay.system": "AMPKα1β2γ1 (Homo sapiens, UniProt O43741+Q13131)", "pEC50": "< 5.00"}
{"compound": "COc1nc(N2CC3(CCC(=O)N3)C2)ccc1-c1cc2c(C(=O)O)c[nH]c2cc1Cl [Example 17]", "assay.system": "AMPKα1β2γ1 (Homo sapiens, UniProt O43741+Q13131)", "pEC50": "< 5.00"}

Qu. Which measured pEC50 value corresponds to COc1nc(N2CC3(CN(C(=O)OC(C)(C)C)C3)C2)ccc1-c1cc2c(C(=O)O)c[nH]c2cc1Cl [Example 6] ?
Ans. < 5.00

Qu. pEC50 for COc1nc(N2C[C@H]3COC[C@H]3C2)ccc1-c1cc2c(C(=O)O)c[nH]c2cc1Cl [Example 27] ?
Ans. < 5.00

Qu. Value lookup for pEC50; key = COc1nc(N2C[C@@H]3COC[C@H]3C2)ccc1-c1cc2c(C(=O)O)c[nH]c2cc1Cl [Example 33]
Ans. 5.00 to 6.60

Qu. I am curious: what pEC50 value has been reported for COc1nc(N2CC3CC3(O)C2)ccc1-c1cc2c(C(=O)O)c[nH]c2cc1Cl (racemic) [Example 26] ?
Ans. < 5.00

Qu. Which pEC50 is listed for COc1nc(N2CC3CC3(C#N)C2)ccc1-c1cc2c(C(=O)O)c[nH]c2cc1Cl (racemic) [Example 15] ?
Ans. < 5.00

Qu. What does the record list as pEC50 for COc1nc(N2C[C@@H]3[C@H](C2)[C@H]3OC)ccc1-c1cc2c(C(=O)O)c[nH]c2cc1Cl [Example 23] ?
Ans. < 5.00

Qu. Please look up its pEC50: COc1nc(N2C[C@@H]3[C@@H](CO)[C@@H]3C2)ccc1-c1cc2c(C(=O)O)c[nH]c2cc1Cl [Example 3]
Ans. 5.00 to 6.60

Qu. Quick check: pEC50 of COc1nc(N2C[C@@H]3[C@@H](O)[C@@H]3C2)ccc1-c1cc2c(C(=O)O)c[nH]c2cc1Cl [Example 24] ?
Ans. 5.00 to 6.60

Qu. Reported pEC50, compound COc1nc(N2CC3(CC(=O)N(C)C3)C2)ccc1-c1cc2c(C(=O)O)c[nH]c2cc1Cl [Example 22] : ____
Ans. < 5.00

Qu. For COc1nc(N2CCC3(COC3)C2)ccc1-c1cc2c(C(=O)O)c[nH]c2cc1Cl [Example 5] , what is its reported pEC50?
Ans. < 5.00

Qu. Would you kindly share the measured pEC50 for COc1nc(N2CC3(CCNC3=O)C2)ccc1-c1cc2c(C(=O)O)c[nH]c2cc1Cl [Example 18] ?
Ans. < 5.00

Qu. Need pEC50 of COc1nc(N2CC3(CC(N)C3)C2)ccc1-c1cc2c(C(=O)O)c[nH]c2cc1Cl [Example 10] , thanks.
Ans. < 5.00

Qu. Which pEC50 value belongs to COc1nc(N2CC3(CC(O)C3)C2)ccc1-c1cc2c(C(=O)O)c[nH]c2cc1Cl [Example 4] ?
Ans. < 5.00

Qu. I am curious: what pEC50 value has been reported for COc1nc(N2CC3(COC3)C2)ccc1-c1c(F)cc2[nH]cc(C(=O)O)c2c1F [Example 41] ?
Ans. < 5.00

Qu. # query: pEC50 of entry COC[C@@H]1[C@H]2CN(c3ccc(-c4cc5c(C(=O)O)c[nH]c5cc4Cl)c(OC)n3)C[C@@H]12 [Example 9]
Ans. < 5.00

Qu. Entry COc1nc(N2CC3(CCC3O)C2)ccc1-c1cc2c(C(=O)O)c[nH]c2cc1Cl (racemic) [Example 25] has what pEC50?
Ans. < 5.00

Qu. Reported pEC50 for COc1nc(N2C[C@H]3CN(C(C)=O)C[C@H]3C2)ccc1-c1cc2c(C(=O)O)c[nH]c2cc1Cl [Example 38] : what is it?
Ans. 5.00 to 6.60

Qu. Entry COc1nc(N2C[C@H]3CCO[C@H]3C2)ccc1-c1cc2c(C(=O)O)c[nH]c2cc1Cl (racemic) [Example 28] has what pEC50?
Ans. < 5.00
